Provide the reported viability of each item.
assay: growth inhibitors of H69AR lung tumor, primary screen, human, duplicate replicates (AID 580); conditions: H69AR lung tumor cells viability, ATP luminescence, 72 h; at 10 µM; stronger effect = lower value;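 also: 100% = mean luminescence of untreated wells and 0% = no signal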
Use % as the unit, but write only the number.

Any idea what its viability is? The molecule is O=C(CSCc1cnn(-c2ccccc2)c1-n1cccc1)NCC1CCCO1 (stereo unspecified)
93.7

Bench note: what viability did `CC(C)(C)NC(=O)Nc1ccccc1C(N)=O` show?
110

Which viability value belongs to `Cc1c(C(=O)OCC(C)(C)CN(C)C)oc2ccccc12` ?
92.4

What value of viability has been reported for the following molecule? `CCCS(=O)(=O)N1CCN(C(=O)c2cccs2)CC1`
99.9

Report viability for `CN=C1CC(C)(C)CC(=O)/C1=C(/O)CCC(=O)NC` please.
102

I have this molecule here, Cc1ccc(C(=O)CC2(O)C(=O)N(CN3CCOCC3)c3ccccc32)cc1 (stereo unspecified) , and I need its recorded viability.
94.6

Record request: viability value, item `COC(=O)c1ccccc1NC(=O)CSc1nnc(-c2ccncc2)o1`
101

// viability lookup, key: `COc1ccccc1N1CCN(Cc2nnnn2CCc2ccccc2)CC1`
93.2

Requested field: viability. Item: CCOC(=O)C1=C(C)OC(N)=C(C#N)C1c1ccoc1 (stereo unspecified)
95.3

Given the entry Cc1nnc(SCC(=O)N2c3ccccc3CC2C)s1 (stereo unspecified) , report its measured viability.
92

Need viability of Cc1ccc(C2c3sc(=O)[nH]c3SC3C(=O)NC(=O)C32)cc1 (stereo unspecified) , thanks.
105

If you can, please state the reported viability value of `CC(=O)Nc1ccc(Oc2cc(C#N)c(C#N)cc2N2CCCCCC2)cc1` .
89.6

Given the molecule O=C(Cc1ccccc1)N1CCCC(c2nc(-c3cccs3)no2)C1 (stereo unspecified) , what is its reported viability?
102

Param item = `CCOc1ccc(-n2cc(C(=O)Nc3cccc(C)n3)c3cc(OC)c(OC)cc3c2=O)cc1` ; retrieve measured viability.
64.4

What value of measured viability is listed for `O=C(Nc1cccnc1)c1ccc2c(c1)C(=O)N(Cc1cccnc1)C2=O` ?
102

Fill in the blank: the reported viability of `CCN(CC)CCOC(=O)c1c(C)oc2ccc(O)cc12` is ____.
95

What value of viability has been reported for the following molecule? `CCOC(=O)CSc1cn2c(n1)CCC2`
92.4

// query viability value for entry Cc1ccc(C(=O)N2CCCC(c3nc4c(nnn4Cc4ccccc4)c(=O)[nH]3)C2)cc1 (stereo unspecified)
83.4

# query: viability of entry `Cc1ccc(S(=O)(=O)Cc2ccc(C(=O)NCCCN3CCN(C)CC3)o2)cc1`
103

Entry under review: O=S(=O)(c1ccc(S(=O)(=O)N2CCN3CCCC3C2)cc1)N1CCCC1 (stereo unspecified) . Reported viability?
98.9

Endpoint output: viability of `COc1ccc(C2(CN(C(C)=O)C(C)=O)CCCC2)cc1OC` . Value?
90.4

Entry under review: `Cc1nnc(SCc2cn3ccsc3n2)n(N)c1=O` . Reported viability?
86.5

Any idea what viability was measured for `COc1ccc2nc(C)cc(N3CCOCC3)c2c1` ?
93.1

Data request, read-out viability, for `Cc1nn(C(=O)c2cc3sccc3[nH]2)c(C)c1C`
106

Find the recorded viability belonging to `CN1CC(=O)N(CC(=O)NCCc2ccc(F)cc2)c2ccccc2C1=O` and report it.
90

Entry under review: Cc1ccc(N2C(=O)c3ccccc3C2O)nc1 (stereo unspecified) . Reported viability?
53.6

Form field: reported viability of `CCOC(=O)c1c(C)n(C)c2ccc(OC)c(NC(=O)CCN3CCSCC3)c12`
83.5

So what's the measured viability for this one? COc1ccc(N2CCN(CCCNC(=O)CC3Oc4ccc(C)cc4NC3=O)CC2)cc1 (stereo unspecified)
89.6

Dear colleague, I am looking for the recorded viability of the following molecule: O=C(COC(=O)c1ccccc1Oc1ccccc1)NC1CCS(=O)(=O)C1 (stereo unspecified)
90

// query viability value for entry O=C(Nc1ccccc1)c1ccc(NCC2CCCO2)c(S(=O)(=O)N2CCOCC2)c1 (stereo unspecified)
90

// returns reported viability for input `Nn1c(SCc2csc(-c3ccccc3)n2)nnc1-c1cccs1`
97.3

Report viability for Fc1ccccc1C(c1nnnn1Cc1ccc2c(c1)OCO2)N1CCN(Cc2ccccc2)CC1 (stereo unspecified) please.
89.3

Request the reported viability associated with `CN1CCN(CC(=O)Nc2ccc(Cl)cc2Cl)CC1`
93.8

Recorded viability for `CCc1nc(SCC(=O)Nc2nccs2)c2oc3ccccc3c2n1` , please?
37.4

Request the reported viability associated with `CCc1nn2c(N3CCOCC3)cc(C)nc2c1-c1ccc(F)cc1`
93.4

Record request: viability value, item `COc1ccc(OC)c(S(=O)(=O)Nc2ccc(C(N)=O)cc2)c1`
94

----------
experiment: HUVEC growth inhibition – cell-based, human, primary screen (AID 575); conditions: HUVEC proliferation, CellTiter-Glo luminescence, 72 h; at 10 µM; stronger effect = lower value;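 also: 100% = median of untreated cell wells with 0.1% DMSO on each plate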
parameter.measured: viability (%)
Give the quantity in %, number only.

Item under review: `COC(=O)c1ccccc1NC(=O)c1ccc(COc2ccccc2)o1` . Reported viability?
94.6

So what's the measured viability for this one? `COc1cccc(Oc2cnc(N)nc2-c2ccc(OC)cc2O)c1`
67.1

State the recorded viability for this entry: `CCCn1c(=N)n(CC(=O)c2cccs2)c2ccccc21`
93.2

Returns the measured viability for the input molecule. Input: `CCCOc1cccc(-c2nnc(N)s2)c1`
87.4

Entry under review: `CCOC(=O)C(C)(C)Sc1nc2c(cnn2-c2ccc(C)cc2)c(=O)[nH]1` . Reported viability?
90.4

----------
experiment: reversal of MRP1-mediated doxorubicin resistance, pilot screen, H69AR cells, doxorubicin co-treatment (AID 601); details: H69AR cells + 2 uM doxorubicin, CellTiter-Glo, 72 h; at 10 µM; stronger effect = higher value
parameter.measured: differential viability (reversal) (%)
Enter your answer as a number in %; do not include the unit.

// lookup differential viability (reversal) for `COc1cc(NC(=O)Cc2nn(C)c(=O)c3ccccc23)cc(OC)c1`
-2.83

# input compound: `Cn1c(=O)c2c(nc(N3CCCCC3)n2CCSc2nc3ccccc3o2)n(C)c1=O` ; wanted: its differential viability (reversal)
1.8

Which differential viability (reversal) reading was recorded for the compound `COC(=O)CNC(=O)c1c(C)cc(=O)oc1C` ?
5.65

# input compound: `COc1ccc(N2CCN(Cc3nc(-c4ccc(Cl)cc4Cl)no3)CC2)cc1` ; wanted: its differential viability (reversal)
9.36

// lookup differential viability (reversal) for `COC(=O)c1ccccc1NS(=O)(=O)c1ccc(F)cc1`
13.1

----------
assay: reversal of MRP1-mediated doxorubicin resistance, pilot screen, H69AR cells, doxorubicin co-treatment (AID 601); details: H69AR cells, CellTiter-Glo, 72 h; compound alone cytotoxicity; at 10 µM
parameter.measured: viability (%)
Give the number; % is assumed, so skip it.

Record request: viability value, item N#CC1=C(N)Oc2n[nH]c(-c3ccncc3)c2C1c1ccsc1 (centres undefined)
87.7

What value of viability has been reported for the following compound? `CN(CC(=O)N1CCN(c2ccc(F)cc2)CC1)S(=O)(=O)c1ccc(F)cc1`
86.6

Fill blank: measured viability of the compound `COc1ccccc1N1CCN(C(=O)c2ccc(CS(=O)(=O)c3ccccc3OC)o2)CC1` is ____.
76.2

Data request, read-out viability, for `O=C(Nc1cccnc1)Nc1ccc2c(c1)OCO2`
82.7

Could you tell me which viability is on file for CC12CCC(C(=O)N3CCCCC3)(CC1=O)C2(C)C (centres undefined) ?
97.8

Requested read-out: viability. Entry: O=C(NCC(c1cccnc1)N1CCN(c2ccc(F)cc2)CC1)c1ccc(F)cc1 (centres undefined)
92.7

# query: viability of entry `CN(Cc1cccs1)c1ncnc2sccc12`
92.4

Field request: viability | item: `NC(=O)c1c(NC(=O)CSc2nnc(-c3ccco3)n2-c2ccccc2)sc2c1CCC2`
28.9

Would you kindly share the measured viability for `COc1nc(OC)nc(N2CCC(C(=O)NC3CCCCCC3)CC2)n1` ?
105

Query (compound): `Cc1ccccc1CSCC(=O)c1c(N)n(C)c(=O)n(C)c1=O` ; field requested: viability
93.5

Endpoint output: viability of COc1ccccc1C(=O)N1CCNC(=O)C1CC(=O)Nc1ccc(Cl)cc1 (centres undefined) . Value?
95.5

Which viability is reported for this compound? `O=C(CP(=O)(CO)CO)c1ccc(Cl)cc1`
101

So what does the record say about viability for `Nc1nnc(-c2cn(-c3ccccc3)nc2-c2ccccc2)o1` ?
91.2

I have this compound here, CCOC(=O)C1=C(C)NC(SC(C)=O)=NC1c1ccc(OC(C)=O)c(OC)c1 (centres undefined) , and I need its recorded viability.
85.3

viability lookup needed for COc1ccccc1N1C(=O)CC(Sc2nc(C)cc(C)n2)C1=O (centres undefined) , thanks.
83.4

Returns the measured viability for the input compound. Input: `COc1ccc(C(=O)NCCCCCC(=O)O)cc1OC`
92.2

// query viability value for entry `Cc1noc(C)c1S(=O)(=O)N1CCC(C(=O)Nc2ccccn2)CC1`
89.5

Need viability, item CCC(c1nnnn1Cc1ccco1)N(CCc1ccccc1)Cc1cc2cccc(C)c2[nH]c1=O (centres undefined)
62.9

Any idea what its viability is? The compound is `Nn1c(SCC(=O)Nc2ccc3c(c2)OCO3)nnc1C1CC1`
94.2
